Test system: NCI-H211 tumor spheroids, viability percent test/control
Test: Anticancer human tumor NCI-H211 cell line growth inhibition; active means viability on the fitted dose curve at most 10% of control; inactive means the rest;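 further: spheroids exposed to agents for seven days before readout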
Settings: second compound 94.9 pM; first compound 0.1 µM; spheroids with HUVEC and MSC
Procedure: Multicellular complex tumor spheroid response to DNA repair inhibitors in combination with DNA-damaging drugs This study explores the anticancer activities of DNA-damaging drugs and inhibitors of DNA damage repair, both as single agents and in combinations. […] Twenty-six patient-derived or established malignant cell lines were evaluated representing sarcoma, melanoma, small cell lung cancer (SCLC), non-small cell lung cancer (NSCLC), as well as bladder, ovarian and pancreatic cancers. […]
Entry note: the call must match one of T for active, F for inactive

[
  {
    "molecule": "CC(C)n1c(=O)n(C)c2cnc3cc(F)c(-c4ccc(OCCCN5CCCCC5)nc4)cc3c21 + COc1cc2c(cc1O)CCNC21CSC2c3c(OC(C)=O)c(C)c4c(c3C(COC1=O)N1C(O)C3Cc5cc(C)c(OC)c(O)c5C(C21)N3C)OCO4",
    "answer_label": "T"
  },
  {
    "molecule": "COc1cc(C)[nH]c(=O)c1CN1CCc2c(Cl)cc(C(OC)C3COC3)c(Cl)c2C1=O (stereo unspecified) + COc1cc2c(cc1O)CCNC21CSC2c3c(OC(C)=O)c(C)c4c(c3C(COC1=O)N1C(O)C3Cc5cc(C)c(OC)c(O)c5C(C21)N3C)OCO4",
    "answer_label": "F"
  },
  {
    "molecule": "[2H]c1nc(C)nc([2H])c1-c1cc(NC[C@@H](C)c2cccc3c(C(=O)NC)ccnc23)ncn1 + COc1cc2c(cc1O)CCNC21CSC2c3c(OC(C)=O)c(C)c4c(c3C(COC1=O)N1C(O)C3Cc5cc(C)c(OC)c(O)c5C(C21)N3C)OCO4",
    "answer_label": "F"
  },
  {
    "molecule": "COc1ccc([C@@H](O)c2cc(-c3ncnc4cc(N5CCOCC5)ccc34)c(F)cc2Cl)nn1 + COc1cc2c(cc1O)CCNC21CSC2c3c(OC(C)=O)c(C)c4c(c3C(COC1=O)N1C(O)C3Cc5cc(C)c(OC)c(O)c5C(C21)N3C)OCO4",
    "answer_label": "F"
  },
  {
    "molecule": "Cc1cc(C)c(CNC(=O)c2cc(-c3ccc(CN4CCOCC4)cc3)cc3c2cnn3C2CCCC2)c(=O)[nH]1 + COc1cc2c(cc1O)CCNC21CSC2c3c(OC(C)=O)c(C)c4c(c3C(COC1=O)N1C(O)C3Cc5cc(C)c(OC)c(O)c5C(C21)N3C)OCO4",
    "answer_label": "F"
  }
]

Query molecule follows.
Exam item: What is the recorded call for this molecule in the test? CC1COCCN1c1cc(-c2ccnn2C)c2ccnc(-c3ccn[nH]3)c2n1 (stereo unspecified) + COc1cc2c(cc1O)CCNC21CSC2c3c(OC(C)=O)c(C)c4c(c3C(COC1=O)N1C(O)C3Cc5cc(C)c(OC)c(O)c5C(C21)N3C)OCO4
Marked response: T
